Molecular target: recombinant human androgen receptor (hAR) (Homo sapiens)
Sequence (P10275 1-920): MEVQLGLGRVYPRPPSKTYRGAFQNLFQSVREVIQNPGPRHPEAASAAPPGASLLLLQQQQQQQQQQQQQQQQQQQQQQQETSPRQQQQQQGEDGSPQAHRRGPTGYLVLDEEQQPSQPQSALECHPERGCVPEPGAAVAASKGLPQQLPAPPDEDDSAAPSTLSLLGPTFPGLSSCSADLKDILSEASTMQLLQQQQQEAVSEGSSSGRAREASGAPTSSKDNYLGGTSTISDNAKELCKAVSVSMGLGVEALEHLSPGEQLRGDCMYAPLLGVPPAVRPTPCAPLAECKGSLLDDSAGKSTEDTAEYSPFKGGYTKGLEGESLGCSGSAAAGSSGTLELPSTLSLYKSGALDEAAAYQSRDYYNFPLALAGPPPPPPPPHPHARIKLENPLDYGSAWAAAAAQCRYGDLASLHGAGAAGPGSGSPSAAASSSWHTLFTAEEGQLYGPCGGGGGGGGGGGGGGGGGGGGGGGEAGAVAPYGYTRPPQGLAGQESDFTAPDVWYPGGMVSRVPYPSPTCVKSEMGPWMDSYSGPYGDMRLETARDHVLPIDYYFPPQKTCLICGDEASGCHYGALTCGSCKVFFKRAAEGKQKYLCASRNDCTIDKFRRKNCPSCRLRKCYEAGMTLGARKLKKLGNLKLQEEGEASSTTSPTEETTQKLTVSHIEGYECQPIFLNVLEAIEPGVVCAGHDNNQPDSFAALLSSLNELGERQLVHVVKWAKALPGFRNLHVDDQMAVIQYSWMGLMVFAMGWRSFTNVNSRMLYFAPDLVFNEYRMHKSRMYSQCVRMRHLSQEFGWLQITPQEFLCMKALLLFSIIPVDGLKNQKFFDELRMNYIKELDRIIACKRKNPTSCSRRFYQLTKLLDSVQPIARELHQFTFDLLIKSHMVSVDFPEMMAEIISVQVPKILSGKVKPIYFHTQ
Assay: Human androgen receptor binding analysis (3H-DHT competitive binding)
Kindly supply the reported pIC50 values for the records listed here.
Numbers only, as −log10 of the molar value.

Here's what some known entries look like.
COMPOUND: C=CCN(C)c1ccc(C#N)c(C(F)(F)F)c1
pIC50: 8.42
//
COMPOUND: COC[C@H]1CCCN1c1ccc(C#N)c(C#N)c1
pIC50: 7.91
//
COMPOUND: CCN(c1ccc(C#N)c(C#N)c1)C(C)C [Example 16, 4-(Ethyl-isopropyl-amino)-phthalonitrile]
pIC50: 8.51

Items follow; give pIC50 for each.
1. CC[C@@H](C)N(C)c1ccc(C#N)c(Cl)c1
2. CCCCN(CCCC)c1ccc(C#N)c(C(F)(F)F)c1

1. 8.44
2. 7.89
